target_of_assay: CYP2D6 (Homo sapiens)
method: CYP inhibition assay, recombinant isoform, fluorescence
Format: biochemical
experimental_conditions: human
Where a SMILES comes first, the peptide text is derived from it. [ ]: non-standard residue; d: D form. The star is where a group is joined. d(aIle) = CC[C@H](C)[C@@H](N)C(=O)O; X1 = CC[C@H](C)CCCCC(=O)*; dDab = NCC[C@@H](N)C(=O)O; Dab = NCC[C@H](N)C(=O)O
parameter: inhibition at 25 min, 0.01 µM

inhibition at 25 min, 0.01 µM for CC[C@H](C)CCCCC(=O)NCC(=O)N[C@H](CCN)C(=O)NCC(=O)N[C@H](CO)C(=O)N[C@H](Cc1c[nH]c2ccccc12)C(=O)N[C@@H](CO)C(=O)N[C@@H](CCN)C(=O)N[C@H](CCN)C(=O)N[C@H](C(=O)N[C@@H](CCC(=O)O)C(=O)N[C@H](C(=O)N[C@@H](C(=O)N[C@@H](CO)C(=O)O)[C@@H](C)CC)[C@@H](C)CC)[C@@H](C)CC [Tridecaptin M, tridecaptin M] (X1-G[dDab]G[dS][dW]S[Dab][dDab]IEI[d(aIle)]S-OH) is < 0%

###

method: in vitro
experimental_conditions: human, microsomes, pH 7.4
Where a SMILES comes first, the peptide text is derived from it. [ ]: non-standard residue; d: D form. The star is where a group is joined. d(aIle) = CC[C@H](C)[C@@H](N)C(=O)O; X1 = CC[C@H](C)CCCCC(=O)*; dDab = NCC[C@@H](N)C(=O)O; Dab = NCC[C@H](N)C(=O)O
parameter: remaining at 0.25 h

For this compound ( CC[C@H](C)CCCCC(=O)NCC(=O)N[C@H](CCN)C(=O)NCC(=O)N[C@H](CO)C(=O)N[C@H](Cc1c[nH]c2ccccc12)C(=O)N[C@@H](CO)C(=O)N[C@@H](CCN)C(=O)N[C@H](CCN)C(=O)N[C@H](C(=O)N[C@@H](CCC(=O)O)C(=O)N[C@H](C(=O)N[C@@H](C(=O)N[C@@H](CO)C(=O)O)[C@@H](C)CC)[C@@H](C)CC)[C@@H](C)CC [Tridecaptin M, tridecaptin M] (X1-G[dDab]G[dS][dW]S[Dab][dDab]IEI[d(aIle)]S-OH) ), measured remaining at 0.25 h is 58%

###

method: in vitro
experimental_conditions: mouse, microsomes, pH 7.4
Where a SMILES comes first, the peptide text is derived from it. [ ]: non-standard residue; d: D form. The star is where a group is joined. d(aIle) = CC[C@H](C)[C@@H](N)C(=O)O; X1 = CC[C@H](C)CCCCC(=O)*; dDab = NCC[C@@H](N)C(=O)O; Dab = NCC[C@H](N)C(=O)O
parameter: remaining at 0.25 h (%)
Numeric only. Scale: %

Noted for CC[C@H](C)CCCCC(=O)NCC(=O)N[C@H](CCN)C(=O)NCC(=O)N[C@H](CO)C(=O)N[C@H](Cc1c[nH]c2ccccc12)C(=O)N[C@@H](CO)C(=O)N[C@@H](CCN)C(=O)N[C@H](CCN)C(=O)N[C@H](C(=O)N[C@@H](CCC(=O)O)C(=O)N[C@H](C(=O)N[C@@H](C(=O)N[C@@H](CO)C(=O)O)[C@@H](C)CC)[C@@H](C)CC)[C@@H](C)CC [Tridecaptin M, tridecaptin M] (X1-G[dDab]G[dS][dW]S[Dab][dDab]IEI[d(aIle)]S-OH) : its remaining at 0.25 h reads 82.4

###

target_of_assay: CYP2C19 (Homo sapiens, UniProt P33261)
Sequence (P33261 whole entry, canonical isoform): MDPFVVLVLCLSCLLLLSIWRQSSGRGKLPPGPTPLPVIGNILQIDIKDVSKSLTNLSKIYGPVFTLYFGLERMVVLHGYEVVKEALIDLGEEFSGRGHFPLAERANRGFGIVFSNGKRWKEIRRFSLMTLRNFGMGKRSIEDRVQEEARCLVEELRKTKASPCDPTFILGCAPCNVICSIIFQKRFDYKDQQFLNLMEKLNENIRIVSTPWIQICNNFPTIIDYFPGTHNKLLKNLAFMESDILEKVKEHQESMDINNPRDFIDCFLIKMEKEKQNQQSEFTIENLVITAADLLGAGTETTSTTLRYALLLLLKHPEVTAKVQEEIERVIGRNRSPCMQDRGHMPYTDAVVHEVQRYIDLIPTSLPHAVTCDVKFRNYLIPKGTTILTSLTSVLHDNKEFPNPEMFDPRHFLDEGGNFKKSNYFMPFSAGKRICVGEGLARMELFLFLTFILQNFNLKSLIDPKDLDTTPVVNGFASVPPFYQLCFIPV
method: CYP inhibition assay, recombinant isoform, fluorescence
Assay type: biochemical
experimental_conditions: human
Where a SMILES comes first, the peptide text is derived from it. [ ]: non-standard residue; d: D form. The star is where a group is joined. d(aIle) = CC[C@H](C)[C@@H](N)C(=O)O; X1 = CC[C@H](C)CCCCC(=O)*; dDab = NCC[C@@H](N)C(=O)O; Dab = NCC[C@H](N)C(=O)O
parameter: inhibition at 25 min, 30 µM (%)
Use % as the unit, but write only the number.

GET /value?item= CC[C@H](C)CCCCC(=O)NCC(=O)N[C@H](CCN)C(=O)NCC(=O)N[C@H](CO)C(=O)N[C@H](Cc1c[nH]c2ccccc12)C(=O)N[C@@H](CO)C(=O)N[C@@H](CCN)C(=O)N[C@H](CCN)C(=O)N[C@H](C(=O)N[C@@H](CCC(=O)O)C(=O)N[C@H](C(=O)N[C@@H](C(=O)N[C@@H](CO)C(=O)O)[C@@H](C)CC)[C@@H](C)CC)[C@@H](C)CC [Tridecaptin M, tridecaptin M] (X1-G[dDab]G[dS][dW]S[Dab][dDab]IEI[d(aIle)]S-OH) &field=inhibition at 25 min, 30 µM returns 11.7

###

target_of_assay: UniProt P08684
Sequence (P08684 whole entry, canonical isoform): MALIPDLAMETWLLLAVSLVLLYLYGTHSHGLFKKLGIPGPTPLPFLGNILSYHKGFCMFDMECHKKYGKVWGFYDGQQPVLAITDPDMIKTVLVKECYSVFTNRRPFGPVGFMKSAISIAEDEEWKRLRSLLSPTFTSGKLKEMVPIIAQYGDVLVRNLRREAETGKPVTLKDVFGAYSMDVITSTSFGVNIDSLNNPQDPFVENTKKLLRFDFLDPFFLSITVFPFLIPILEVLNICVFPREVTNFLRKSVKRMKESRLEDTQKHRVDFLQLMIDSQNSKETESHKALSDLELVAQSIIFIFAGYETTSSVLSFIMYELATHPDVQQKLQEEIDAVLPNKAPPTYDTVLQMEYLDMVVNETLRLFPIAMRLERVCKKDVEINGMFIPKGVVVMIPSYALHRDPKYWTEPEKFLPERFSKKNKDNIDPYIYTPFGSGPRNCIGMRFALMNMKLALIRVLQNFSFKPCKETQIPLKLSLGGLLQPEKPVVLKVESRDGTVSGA
method: CYP inhibition assay, recombinant isoform, fluorescence
Format: biochemical
experimental_conditions: human
Experimental: The CYP inhibition assay was performed for test/control inhibitor items in duplicates using a 96-well fluorescence plate. An example of the preparation of CYP inhibition is given below in Table 8. The plate with CYP master premix with test/control was incubated to allow the test/control samples to interact with CYP enzyme for 10 ± 1 min at 25°C under shaking conditions (400 rpm) using Thermomixer. […]
Where a SMILES comes first, the peptide text is derived from it. [ ]: non-standard residue; d: D form. The star is where a group is joined. d(aIle) = CC[C@H](C)[C@@H](N)C(=O)O; X1 = CC[C@H](C)CCCCC(=O)*; dDab = NCC[C@@H](N)C(=O)O; Dab = NCC[C@H](N)C(=O)O
parameter: inhibition at 25 min, 0.01 µM

Documented inhibition at 25 min, 0.01 µM of CC[C@H](C)CCCCC(=O)NCC(=O)N[C@H](CCN)C(=O)NCC(=O)N[C@H](CO)C(=O)N[C@H](Cc1c[nH]c2ccccc12)C(=O)N[C@@H](CO)C(=O)N[C@@H](CCN)C(=O)N[C@H](CCN)C(=O)N[C@H](C(=O)N[C@@H](CCC(=O)O)C(=O)N[C@H](C(=O)N[C@@H](C(=O)N[C@@H](CO)C(=O)O)[C@@H](C)CC)[C@@H](C)CC)[C@@H](C)CC [Tridecaptin M, tridecaptin M] (X1-G[dDab]G[dS][dW]S[Dab][dDab]IEI[d(aIle)]S-OH) : < 0%

###

method: in vitro
experimental_conditions: rat, liver microsomes, pH 7.4
parameter: remaining at 0.25 h (%)
Write the answer as a number in %, unit excluded.

remaining at 0.25 h reading for O=C(O)Cc1ccccc1Nc1c(Cl)cccc1Cl [Diclofenac, reference compound] : 102

###

target_of_assay: CYP2D6 (Homo sapiens, UniProt P10635)
Sequence (P10635 whole entry, canonical isoform): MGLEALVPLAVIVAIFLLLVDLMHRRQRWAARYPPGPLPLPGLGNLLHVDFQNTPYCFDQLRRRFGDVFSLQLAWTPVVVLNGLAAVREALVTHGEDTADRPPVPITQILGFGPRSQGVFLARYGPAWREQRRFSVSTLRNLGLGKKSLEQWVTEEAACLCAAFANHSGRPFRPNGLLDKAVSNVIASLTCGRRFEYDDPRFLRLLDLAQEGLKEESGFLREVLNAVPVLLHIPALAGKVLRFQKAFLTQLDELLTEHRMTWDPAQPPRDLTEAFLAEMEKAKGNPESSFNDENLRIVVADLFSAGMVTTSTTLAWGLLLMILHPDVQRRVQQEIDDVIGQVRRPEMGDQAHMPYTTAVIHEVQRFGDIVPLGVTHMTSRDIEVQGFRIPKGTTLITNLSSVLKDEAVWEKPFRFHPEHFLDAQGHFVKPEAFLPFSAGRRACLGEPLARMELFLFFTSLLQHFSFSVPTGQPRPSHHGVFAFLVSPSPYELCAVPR
method: CYP inhibition assay, recombinant isoform, fluorescence
Type: biochemical
experimental_conditions: human, recombinant CYP2D6; 0.01 µM; read-out: % inhibition CYP 2D6
parameter: inhibition at 25 min, 0.01 µM (%)
Form entry: value (%) — number only.

inhibition at 25 min, 0.01 µM for C=C[C@H]1C[N@@]2CC[C@H]1C[C@@H]2[C@@H](O)c1ccnc2ccc(OC)cc12 [Quinidine, reference compound] is 88.6

###

method: in vitro
experimental_conditions: mouse, plasma, % Binding to Plasma Protein
Where a SMILES comes first, the peptide text is derived from it. [ ]: non-standard residue; d: D form. The star is where a group is joined. d(aIle) = CC[C@H](C)[C@@H](N)C(=O)O; X1 = CC[C@H](C)CCCCC(=O)*; dDab = NCC[C@@H](N)C(=O)O; Dab = NCC[C@H](N)C(=O)O
parameter: fraction unbound at 4 h, 10 µM

Consider CC[C@H](C)CCCCC(=O)NCC(=O)N[C@H](CCN)C(=O)NCC(=O)N[C@H](CO)C(=O)N[C@H](Cc1c[nH]c2ccccc12)C(=O)N[C@@H](CO)C(=O)N[C@@H](CCN)C(=O)N[C@H](CCN)C(=O)N[C@H](C(=O)N[C@@H](CCC(=O)O)C(=O)N[C@H](C(=O)N[C@@H](C(=O)N[C@@H](CO)C(=O)O)[C@@H](C)CC)[C@@H](C)CC)[C@@H](C)CC [Tridecaptin M, tridecaptin M] (X1-G[dDab]G[dS][dW]S[Dab][dDab]IEI[d(aIle)]S-OH) . Its measured fraction unbound at 4 h, 10 µM is 0.5

###

target_of_assay: CYP2D6 (Homo sapiens, UniProt P10635)
method: CYP inhibition assay, recombinant isoform, fluorescence
Assay type: biochemical
experimental_conditions: human, recombinant CYP2D6; 0.001 µM; read-out: % inhibition CYP 2D6
parameter: inhibition at 25 min, 0.001 µM (%)
Express the result in % but write the number alone.

Entry C=C[C@H]1C[N@@]2CC[C@H]1C[C@@H]2[C@@H](O)c1ccnc2ccc(OC)cc12 [Quinidine, reference compound] , inhibition at 25 min, 0.001 µM reported as 14
